# procedure-details: Plasma levels of isoxicam and bioavailability parameters after a single oral dose to beagle dogs
# Assay type: in vivo
# details: dog, in vivo, po, 100 mg, dog 120064, oral 100 mg (free acid equivalents); read-out: Tmax
measurement-name: Tmax (h)
Kindly provide the numeric value in h only, without the unit symbol.

QUERY: Retrieve Tmax measured for Cc1cc(NC(=O)C2=C(O)c3ccccc3S(=O)(=O)N2C)no1 [arginine isoxicamate, L-arginine isoxicamate] and print it.
RESULT: 2

====

# procedure-details: Plasma levels of isoxicam and bioavailability parameters after a single oral dose to beagle dogs
# Assay type: in vivo
# details: dog, in vivo, po, 100 mg, dog 1942, oral 100 mg (free acid equivalents)
measurement-name: AUC(0-inf) (µg·h/mL)
Kindly provide the numeric value in µg·h/mL only, without the unit symbol.

QUERY: Retrieve AUC(0-inf) measured for Cc1cc(NC(=O)C2=C(O)c3ccccc3S(=O)(=O)N2C)no1 [arginine isoxicamate, L-arginine isoxicamate] and print it.
RESULT: 2920

====

# procedure-details: Plasma levels of isoxicam and bioavailability parameters after a single oral dose to beagle dogs
# Format: in vivo
# details: dog, in vivo, po, 100 mg, dog 117668, oral 100 mg (free acid equivalents); read-out: Tmax
measurement-name: Tmax (h)
Kindly provide the numeric value in h only, without the unit symbol.

QUERY: Retrieve Tmax measured for Cc1cc(NC(=O)C2=C(O)c3ccccc3S(=O)(=O)N2C)no1 [arginine isoxicamate, L-arginine isoxicamate] and print it.
RESULT: 6

Values compiled from patent EP0140492B1.
